Attribution: patent US12398092B2

Below: a set of entries, each annotated with reported pIC50.
test system: S. aureus subsp. aureus Rosenbach ATCC 33592 (MRSA); test: Biofilm inhibition, crystal violet staining (MBIC50); type: cell-based; details: double-dilution method; Table 1; read-out: MBIC50, strain A
pIC50: −log10 of the molar value.

# input # lookup: S. aureus subsp. aureus Rosenbach ATCC 33592 (MRSA) pIC50, key = C[N+](C)(C)C.[Br-] [TMA—Br, tetramethylammonium bromide]
# output < 3.68

# input Supply pIC50 measured with S. aureus subsp. aureus Rosenbach ATCC 33592 (MRSA) for C[N+](C)(C)C.[Cl-] [TMA—Cl, tetramethylammonium chloride] .
# output < 3.53
